# TESTED ON: tripeptidase of L.lactis subsp. cremoris Wg2 (Lactococcus lactis subsp. cremoris, UniProt P0C2T7)
# Sequence (P0C2T7 1-413): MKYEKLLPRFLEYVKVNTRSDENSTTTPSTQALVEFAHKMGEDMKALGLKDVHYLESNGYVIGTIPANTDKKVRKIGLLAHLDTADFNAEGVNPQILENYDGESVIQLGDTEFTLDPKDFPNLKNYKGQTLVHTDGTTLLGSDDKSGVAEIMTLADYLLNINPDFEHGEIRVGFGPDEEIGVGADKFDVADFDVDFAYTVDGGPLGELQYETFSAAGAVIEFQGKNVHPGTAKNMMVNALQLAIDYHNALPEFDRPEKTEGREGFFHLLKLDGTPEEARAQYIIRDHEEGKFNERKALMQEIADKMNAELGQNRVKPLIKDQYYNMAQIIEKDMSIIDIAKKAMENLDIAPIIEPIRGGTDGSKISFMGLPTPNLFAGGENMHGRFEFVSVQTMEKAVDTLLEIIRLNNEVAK
# PROTOCOL TEXT: Substrate specificity: peptide hydrolysis analysed by TLC
# Type: biochemical
# Set-up: key: + : hydrolysis; - : no hydrolysis
# RECORDED CONDITIONS: peptide hydrolysis by the purified peptidase, 2 mM substrate in 20 mM HEPES (pH 7.0), 60 min at 30°C
Where a SMILES comes first, the peptide text is derived from it.
OBSERVABLE: activity

>>> recorded_measurement("C[C@H](N)C(=O)N[C@@H](C)C(=O)O [Ala2] (H-Ala-Ala-OH)")
"-"
>>> recorded_measurement("NC(Cc1cnc[nH]1)C(=O)NCC(=O)NCC(=O)O (stereo not drawn) [His-Gly-Gly]")
"+"
>>> recorded_measurement("CC(C)C[C@H](N)C(=O)NCC(=O)O [Leu-Gly] (H-Leu-Gly-OH)")
"-"
>>> recorded_measurement("NC(CO)C(=O)NCC(=O)NCC(=O)O (stereo not drawn) [Ser-Gly-Gly]")
"+"

Shift focus to the following entry.
Name the reported activity value associated with the compound CC(C)[C@H](NC(=O)[C@@H](N)CCC(=O)O)C(=O)O [Glu-Val] (H-Glu-Val-OH)
-

====

# TESTED ON: tripeptidase of L.lactis subsp. cremoris Wg2 (Lactococcus lactis subsp. cremoris, UniProt P0C2T7)
# PROTOCOL TEXT: Substrate specificity: peptide hydrolysis analysed by TLC
# Assay type: biochemical
# Parameters: key: + : hydrolysis; - : no hydrolysis
# RECORDED CONDITIONS: peptide hydrolysis by the purified peptidase, 2 mM substrate in 20 mM HEPES (pH 7.0), 60 min at 30°C
Where a SMILES comes first, the peptide text is derived from it.
OBSERVABLE: activity

The examples below pair each entry with its known result.
>>> recorded_measurement("CC(C)C[C@H](N)C(=O)NCC(=O)NCC(=O)O [Leu-Gly-Gly, leucyl-glycyl-glycine] (H-Leu-Gly-Gly-OH)")
"+"
>>> recorded_measurement("O=C(O)CNC(=O)CNC(=O)C1CCCN1 (stereo not drawn)")
"+"
>>> recorded_measurement("C[C@H](N)C(=O)N[C@@H](CC(=O)O)C(=O)O [Ala-Asp] (H-Ala-Asp-OH)")
"-"
>>> recorded_measurement("CC(C)C[C@H](NC(=O)[C@@H](N)Cc1ccccc1)C(=O)O [Phe-Leu] (H-Phe-Leu-OH)")
"-"

Please look up its activity: C[C@H](NC(=O)[C@@H](N)CCC(=O)O)C(=O)O [Glu-Ala] (H-Glu-Ala-OH)
-

activity lookup needed for C[C@H](N)C(=O)N[C@@H](Cc1cnc[nH]1)C(=O)N[C@@H](C)C(=O)O [Ala-His-Ala] (H-Ala-His-Ala-OH) , thanks.
+

Reported activity, molecule CC(C)C[C@H](NC(=O)[C@H](CC(C)C)NC(=O)[C@@H](N)CC(C)C)C(=O)O [Leu-Leu-Leu, leucyl-leucyl-leucine] (H-Leu-Leu-Leu-OH) : ____
+

Returns the measured activity for the input molecule. Input: CC(C)CC(NC(=O)C(Cc1ccccc1)NC(=O)CN)C(=O)O (stereo not drawn) [Gly-Phe-Leu] (H-Gly-Phe-Leu-OH; configuration not given here)
+

Record request: activity value, item CC(C)CC(NC(=O)CN)C(=O)NC(Cc1ccc(O)cc1)C(=O)O (stereo not drawn) [Gly-Leu-Tyr] (H-Gly-Leu-Tyr-OH; configuration not given here)
+

Sample CSCCC(N)C(=O)NCC(=O)NCC(=O)O (stereo not drawn) — what was its activity?
+

Looking for the measured activity of CSCC[C@H](NC(=O)[C@H](Cc1ccccc1)NC(=O)CNC(=O)CNC(=O)[C@@H](N)Cc1ccc(O)cc1)C(=O)O , can you help?
-

====

# TESTED ON: tripeptidase of L.lactis subsp. cremoris Wg2 (Lactococcus lactis subsp. cremoris)
# PROTOCOL TEXT: Substrate specificity: peptide hydrolysis analysed by TLC
# Assay type: biochemical
# Design: key: + : hydrolysis; - : no hydrolysis
# RECORDED CONDITIONS: peptide hydrolysis by the purified peptidase, 2 mM substrate in 20 mM HEPES (pH 7.0), 60 min at 30°C
Where a SMILES comes first, the peptide text is derived from it.
OBSERVABLE: activity

>>> recorded_measurement("CSCC[C@H](NC(=O)[C@@H](N)CC(C)C)C(=O)O [Leu-Met] (H-Leu-Met-OH)")
"-"
>>> recorded_measurement("CC(NC(=O)C1CCCN1C(=O)CN)C(=O)O (stereo not shown)")
"-"
>>> recorded_measurement("NCC(=O)N1CCC[C@H]1C(=O)NCC(=O)NCC(=O)O [Gly-Pro-Gly-Gly] (H-GPGG-OH)")
"-"
>>> recorded_measurement("CSCC[C@H](NC(=O)[C@H](CC(C)C)NC(=O)CNC(=O)[C@H](Cc1ccccc1)NC(=O)[C@H](Cc1ccccc1)NC(=O)[C@H](CCC(N)=O)NC(=O)[C@H](CCC(N)=O)NC(=O)[C@@H]1CCCN1C(=O)[C@H](CCCCN)NC(=O)[C@@H]1CCCN1C(=O)[C@@H](N)CCCNC(=N)N)C(N)=O")
"-"
>>> recorded_measurement("NC(Cc1ccccc1)C(=O)NCC(=O)NCC(=O)O (stereo not shown)")
"+"

Name the recorded activity for CC(C)C[C@H](NC(=O)[C@@H](N)CC(C)C)C(=O)O .
-

Entry C[C@H](N)C(=O)N[C@@H](C)C(=O)N[C@@H](C)C(=O)N[C@@H](C)C(=O)N[C@@H](C)C(=O)O has what activity?
-

Data request, read-out activity, for C[C@H](N)C(=O)N[C@@H](C)C(=O)N[C@@H](C)C(=O)N[C@@H](C)C(=O)O [Ala4] (H-AAAA-OH)
-

====

# TESTED ON: tripeptidase of L.lactis subsp. cremoris Wg2 (Lactococcus lactis subsp. cremoris, UniProt P0C2T7)
# PROTOCOL TEXT: Substrate specificity: peptide hydrolysis analysed by TLC
# Type: biochemical
# Parameters: key: + : hydrolysis; - : no hydrolysis
# RECORDED CONDITIONS: peptide hydrolysis by the purified peptidase, 2 mM substrate in 20 mM HEPES (pH 7.0), 60 min at 30°C
Where a SMILES comes first, the peptide text is derived from it.
OBSERVABLE: activity

// worked examples, activity included
>>> recorded_measurement("NCCC[C@H](NC(=O)[C@H](CCCN)NC(=O)[C@@H](N)CCCN)C(=O)O")
"+"
>>> recorded_measurement("CC(C)[C@H](N)C(=O)NCC(=O)NCC(=O)O [Val-Gly-Gly] (H-Val-Gly-Gly-OH)")
"+"
>>> recorded_measurement("CC(NC(=O)C(Cc1ccc(O)cc1)NC(=O)CN)C(=O)O (centres unmarked)")
"+"
>>> recorded_measurement("NCCCC[C@H](NC(=O)[C@@H](N)CCC(=O)O)C(=O)O [Glu-Lys] (H-Glu-Lys-OH)")
"-"
>>> recorded_measurement("NCC(=O)NC(Cc1cnc[nH]1)C(=O)NCC(=O)O (centres unmarked)")
"+"

I have this molecule here, N=C(N)NCCCC(N)C(=O)NCC(=O)NCC(=O)O (centres unmarked) , and I need its recorded activity.
+

I have this molecule here, C[C@H](N)C(=O)N1CCC[C@H]1C(=O)N[C@@H](C)C(=O)O [Ala-Pro-Ala] (H-Ala-Pro-Ala-OH) , and I need its recorded activity.
-

Fill blank: measured activity of the molecule CC(C)[C@H](NC(=O)[C@@H](N)CCC(=O)O)C(=O)N[C@@H](Cc1ccccc1)C(=O)O [Glu-Val-Phe] (H-Glu-Val-Phe-OH) is ____.
+

====

# TESTED ON: tripeptidase of L.lactis subsp. cremoris Wg2 (Lactococcus lactis subsp. cremoris)
# PROTOCOL TEXT: Substrate specificity: peptide hydrolysis analysed by TLC
# Assay type: biochemical
# Parameters: key: + : hydrolysis; - : no hydrolysis
# RECORDED CONDITIONS: peptide hydrolysis by the purified peptidase, 2 mM substrate in 20 mM HEPES (pH 7.0), 60 min at 30°C
Where a SMILES comes first, the peptide text is derived from it.
OBSERVABLE: activity

>>> recorded_measurement("C[C@H](N)C(=O)N1CCC[C@H]1C(=O)N[C@@H](Cc1ccccc1)C(=O)O [Ala-Pro-Phe] (H-Ala-Pro-Phe-OH)")
"-"
>>> recorded_measurement("CC(NC(=O)C(CO)NC(=O)CN)C(=O)O (stereo not drawn) [Gly-Ser-Ala]")
"+"
>>> recorded_measurement("N[C@@H](CCC(=O)O)C(=O)N[C@@H](CCC(=O)O)C(=O)O [Glu-Glu] (H-Glu-Glu-OH)")
"-"
>>> recorded_measurement("N[C@@H](Cc1ccc(O)cc1)C(=O)NCC(=O)NCC(=O)O [Tyr-Gly-Gly] (H-Tyr-Gly-Gly-OH)")
"+"
